Kindly state IC50 for each of the entries shown.
target: Cathepsin K (Mus musculus); experiment: Inhibition of mouse recombinant cathepsin K
Sequence (P55097 whole entry): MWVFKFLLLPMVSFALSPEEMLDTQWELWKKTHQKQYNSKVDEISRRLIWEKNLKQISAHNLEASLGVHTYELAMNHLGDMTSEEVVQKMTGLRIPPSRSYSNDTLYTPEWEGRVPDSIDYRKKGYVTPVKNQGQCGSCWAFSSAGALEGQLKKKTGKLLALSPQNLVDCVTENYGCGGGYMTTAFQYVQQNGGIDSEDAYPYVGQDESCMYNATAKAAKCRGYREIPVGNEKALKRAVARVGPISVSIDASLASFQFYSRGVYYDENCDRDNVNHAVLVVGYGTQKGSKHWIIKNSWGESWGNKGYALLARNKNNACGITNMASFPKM
State the answer as a number, implicitly in nM.

Request: What value of IC50 on Cathepsin K (Mus musculus) does N#CC1(NC(=O)[C@H](CS(=O)(=O)c2cccc(Br)c2)N[C@@H](c2ccccc2)C(F)(F)F)CC1 have?
Result: 2550

Request: Proceed to CC(C)C[C@H](N[C@@H](c1ccc(-c2ccc(S(C)(=O)=O)cc2)cc1)C(F)(F)F)C(=O)NCC#N
Result: 43

Request: Proceed to N#CC1(NC(=O)[C@H](CS(=O)(=O)c2ccc(Br)cc2)N[C@@H](c2ccccc2)C(F)(F)F)CC1
Result: 1320

Request: Proceed to C[S+]([O-])C[C@H](N[C@@H](c1ccc(F)cc1)C(F)(F)F)C(=O)NC1(C#N)CC1 (stereo partly specified)
Result: 5840

Request: Proceed to CS(=O)(=O)C[C@H](N[C@@H](c1ccc(Br)cc1)C(F)(F)F)C(=O)NC1(C#N)CC1
Result: 1030
